From: ChEMBL document CHEMBL1201862

System: MCF7
method-summary: NCI tumour cell line growth inhibition, 48 h
Activity calls are given as the source filed them. Rule as the data show it: active = GI50 up to about 1.1 µM and inactive = higher.
recorded-endpoint: GI50

Example entries and their recorded answers appear below.
CCOC1CC(=O)c2c(Br)sc(Br)c21 (stereo unspecified) :: 21.2 µM (inactive)
Nc1ncc2c(n1)-c1ccccc1OC2N1CCCC1 (stereo unspecified) :: > 100 µM (inactive)

Just so you know, measured GI50 for CC(=O)N1N=C(c2ccc3ccccc3c2O)CC1c1ccc(Cl)cc1Cl (stereo unspecified) came out at 13.2 µM (inactive)

Just so you know, measured GI50 for `COc1ccc(-n2cnc3c2=NC(C)(C)NC=3C(N)=O)c(OC)c1` came out at > 100 µM (inactive)

Just so you know, measured GI50 for Cn1c2ccccc2c2c3c(c4c5ccccc5n(C5OC(CO)C(O)C(O)C5O)c4c21)C(=O)OC3=O (stereo unspecified) came out at > 100 µM (inactive)

Just so you know, measured GI50 for `CC(C)c1cc(=O)[nH]c2cc(N)ccc12` came out at > 100 µM (inactive)

Just so you know, measured GI50 for C=C1C(=O)OC2C3OC(C)(CCC(O)C3COC(C)=O)CC(OC(=O)/C(=C/C)COC(C)=O)C12 (stereo unspecified) came out at 0.128 µM (active)

Just so you know, measured GI50 for OC(c1ccc(C(F)(F)F)cc1)C(F)(F)c1nc2ccccc2o1 (stereo unspecified) came out at > 100 µM (inactive)

Just so you know, measured GI50 for `CCOC(=O)c1[nH]cc(C)c1-c1ccc2c(-c3ccccc3)nc3ccccc3n12` came out at 2.1 µM (inactive)

Just so you know, measured GI50 for `Cc1cc2cc3c(Cl)c(CCCl)c(C)nc3cc2c(Cl)c1CCCl` came out at 26.9 µM (inactive)

Just so you know, measured GI50 for `O=c1c2ccccc2nc(N/N=C/c2ccc(Cl)cc2)n1-c1ccccc1` came out at > 100 µM (inactive)

----------
Tested on: COLO 205
method-summary: NCI tumour cell line growth inhibition, 48 h
Active and inactive are the calls of the source. No stated cut-off is given here; in the data, active = GI50 up to about 1.1 µM and inactive = higher.
List of GI50 values.

Example entries and their recorded answers appear below.
CCOc1ccccc1/N=N/C1C(=O)N(C(=O)CC(=O)Nc2ccccc2C)N=C1C (stereo not drawn) :: > 100 µM (inactive)
[O-][N+]1=C(c2ccccc2)COc2ccccc21 :: > 100 µM (inactive)
CC1(C)OCC(C2CCC3(C)C4=CCC5C(C)(C)C(O)CCC5(C)C4CCC23C)CC(O)C1O (stereo not drawn) :: 22.5 µM (inactive)

Just so you know, measured GI50 for CCCOC(=O)c1cc(C(=CCC[C@H]2CC[C@@]3(C)[C@@H](CC[C@@H]4[C@@H]3CC[C@]3(C)[C@@H](C(C)CCCC(C)C)CC[C@@H]43)C2)c2cc(Cl)c(O)c(C(=O)OCCC)c2)cc(Cl)c1O (stereo partly drawn) came out at > 50 µM (inactive)

Just so you know, measured GI50 for `O=C(CN1CCOCC1)Nc1nc(-c2ccc(Cl)cc2)cs1` came out at 31.9 µM (inactive)

----------
System: KM12
method-summary: NCI tumour cell line growth inhibition, 48 h
Activity calls are given as the source filed them. Cut-off read from the data, not from the text of the source: active = GI50 up to about 1.1 µM and inactive = higher.
recorded-endpoint: GI50

O=C(Nc1cccc(C(=O)NCCCO)c1)/C(=C/c1ccccc1)NC(=O)c1ccccc1 :: > 100 µM (inactive)
CC(=O)c1ccccc1NC(=O)C(=O)C(C(=O)c1ccc2ccccc2c1)C1OC(=O)c2ccccc21 (stereo not given) :: 18.3 µM (inactive)
COC(CC1(/C=C/O[Si](C(C)C)(C(C)C)C(C)C)C(=O)N(C)c2ccccc21)OC (stereo not given) :: 39.4 µM (inactive)
CC[C@H](NC(=O)OC(C)(C)C)C(=O)NCP(=O)(OCc1ccc([N+](=O)[O-])cc1)OCc1ccc([N+](=O)[O-])cc1 :: 26.8 µM (inactive)
O=C(CCc1cc(O)cc(O)c1)NCCc1ccc(O)c(O)c1 :: > 100 µM (inactive)
CCOC(=O)CCC(NC(=O)c1ccc(Nc2cnc3cc(C(F)(F)F)ccc3n2)cc1)C(=O)OCC (stereo not given) :: 61.9 µM (inactive)
C=C(c1ccccc1)C1(O)CCCCC1N (stereo not given) :: > 100 µM (inactive)
CCc1c(-c2ccccc2)[nH]c2ccccc2c1=O :: 16.4 µM (inactive)

For `CNC1=C(C)C(=O)C(C)=C(C(C)(C)CC(=O)n2cc(F)c(=O)[nH]c2=O)C1=O` on KM12, measured GI50 was 14.5 µM (inactive)

For `CC(=O)Nc1ccc(C(=O)N2N=C(C)/C(=C/c3ccccc3O)C2=O)cc1` on KM12, measured GI50 was > 100 µM (inactive)

----------
Test system: HOP-62
method-summary: NCI tumour cell line growth inhibition, 48 h
Active and inactive are the calls of the source. No stated cut-off is given here; in the data, active = GI50 up to about 1.1 µM and inactive = higher.
In this exercise, the only acceptable responses are active, inactive

Check out these entries, answers already filled in.
COc1cc(S(=O)(=O)Nc2nc(-c3ccc(N4C(=O)CSC4c4cccs4)cc3)cs2)ccc1Cl (configuration not stated) :: inactive
CCCCCCCCCCCCCc1nnn[nH]1 :: inactive
COc1ccc2c(c1OCC(=O)O)C(=O)C(CCC(=O)O)CC2 (configuration not stated) :: inactive
CCC1(O)CC(OC2CC(N(C)C)C(OC3CC(O)C(OC4CCC(=O)C(C)O4)C(C)O3)C(C)O2)c2c(O)c3c(c(O)c2C1C(=O)OC)C(=O)c1cccc(O)c1C3=O (configuration not stated) :: active
COc1ccc2oc(=O)c(-c3nc4ccccc4s3)cc2c1 :: inactive

Qu. GET /call?item= CC(C)C(Nc1c2ccccc2[n+](C)c2ccccc12)C(=O)O (configuration not stated) returns the recorded outcome of this test.
Ans. inactive

Qu. GET /call?item= `O=C(CCCn1ccnc1[N+](=O)[O-])NCCn1cnc([N+](=O)[O-])c1` returns the recorded outcome of this test.
Ans. inactive

Qu. GET /call?item= `COc1cc(OC)c(OC)cc1/C=C1\C=Cc2ccccc21` returns the recorded outcome of this test.
Ans. inactive

Qu. GET /call?item= `CCOC(=O)c1c(-c2ccccc2)nc2c(OC)nccn12` returns the recorded outcome of this test.
Ans. inactive

Qu. GET /call?item= CC(C)(C)C(=O)OCOP(=O)(OCOC(=O)C(C)(C)C)OCC1OC(n2ccc(=O)[nH]c2=O)C(N=[N+]=[N-])C1O (configuration not stated) returns the recorded outcome of this test.
Ans. inactive

Qu. GET /call?item= `Cc1cc(C)nc(NS(=O)(=O)c2ccc(Nc3nnc(/C=C/c4c(O)ccc5ccccc45)c(=O)n3N)cc2)n1` returns the recorded outcome of this test.
Ans. inactive

Qu. GET /call?item= `CCCCN1CSC(=S)N(Cc2ccccc2)C1` returns the recorded outcome of this test.
Ans. inactive

----------
List of GI50 values.
System: XF498
method-summary: NCI tumour cell line growth inhibition, 48 h
Activity calls are given as the source filed them. No stated cut-off is given here; in the data, active = GI50 up to about 1.1 µM and inactive = higher.

CCOC(=O)c1oc2c(OC)cc(Cl)c3c2c1CCC3 :: 19.5 µM (inactive)

Just so you know, measured GI50 for `CCOC(=O)C(=O)Nc1cccc(C)c1C` came out at > 100 µM (inactive)

Just so you know, measured GI50 for C[C@]12Cc3conc3C(O)=C1CC[C@@H]1C2CC[C@@]2(C)C1CC[C@@H]2O (stereo partly specified) came out at 15 µM (inactive)

Just so you know, measured GI50 for `Cc1ccc2nc(NC(=O)/C(=N\NC(=S)NN)C3C(=O)NC(=S)NC3=O)sc2c1` came out at > 100 µM (inactive)

Just so you know, measured GI50 for O=C(O)C12C3C4C1C1C2C3C1(Br)C41OCCO1 (stereo unspecified) came out at > 100 µM (inactive)

Just so you know, measured GI50 for `COc1cc(/C=C2\CCC/C(=C\c3ccc(O)c(OC)c3)C2=O)ccc1O` came out at 5.7 µM (inactive)

----------
Test system: NCI-H23
method-summary: NCI tumour cell line growth inhibition, 48 h
Active and inactive are the calls of the source. No stated cut-off is given here; in the data, active = GI50 up to about 1.1 µM and inactive = higher.
In this exercise, the only acceptable responses are t (active), f (inactive)

Check out these entries, answers already filled in.
NC1CCCCC1.O=P(O)(O)C(O)/C=C/c1ccccc1 (stereo not given) :: f
C/C(=N\NC(N)=O)c1sc(-c2nc(C)c(/C(C)=N/NC(N)=O)s2)nc1C :: f
COC(=O)c1ccccc1C1CN=NC12Cc1cc(C)c(C)cc1C2=O (stereo not given) :: f

Qu. GET /call?item= `C/C(=N/NC(=S)Nc1ccc(Cl)cc1)c1cccc(/C(C)=N\NC(=S)Nc2ccc(Cl)cc2)n1` returns the recorded outcome of this test.
Ans. f

Qu. GET /call?item= CCN1C(=O)c2cc(OC)c(OC)cc2C(=O)C12OC(=O)c1cc3c(cc12)OCO3 (stereo not given) returns the recorded outcome of this test.
Ans. f

Qu. GET /call?item= `Cc1cc2cc3c(Cl)c(CCCl)c(C)nc3cc2c(Cl)c1CCCl` returns the recorded outcome of this test.
Ans. f

Qu. GET /call?item= `Clc1ccc2c(NCCCCCCNc3ccnc4cc(Cl)ccc34)ccnc2c1` returns the recorded outcome of this test.
Ans. f

Qu. GET /call?item= `Cc1nc2c(n1-c1ccc(Br)cc1)C(=O)c1ccccc1C2=O` returns the recorded outcome of this test.
Ans. f

Qu. GET /call?item= Cc1ccc(C2SCC(=O)N2c2ccc(-c3ccc(-n4c(-c5ccccc5)nc5ccccc5c4=O)cc3)cc2)cc1 (stereo not given) returns the recorded outcome of this test.
Ans. f
